Could you please report measured binding in ELISA relative to parental Fab for the items listed next?
# TEST TARGET: T1, human glycophorin A on human red blood cells or red blood cell membranes (human, UniProt P02724 20-150)
# T1 construct: whole, on cells; also called hRBC; human RBC membranes
# T1 sequence (looked up): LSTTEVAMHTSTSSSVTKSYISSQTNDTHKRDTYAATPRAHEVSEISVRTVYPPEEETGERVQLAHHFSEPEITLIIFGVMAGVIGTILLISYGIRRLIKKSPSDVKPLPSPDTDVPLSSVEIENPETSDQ
# ASSAY TEXT: ELISA, Fab on coated human RBC membranes

Give its binding in ELISA relative to parental Fab value. Item: TPP-5836, Hu6C12-24 Fab variant VL: (S24R, A26S, S49A, P54Q, F95Y); VH: (I48M, L70M, T72R) (Fab, V domains shown, Built on the parental Fab TPP-4935) VH: EVQLVQSGAEVKKPGASVKVSCKASGYTFTTYTIHWVRQAPGQGLEWMGYINPSSDYTRYNPKFKDRVTMTRDKSTSTAYMELRSLRSDDTAVYYCQTGTRDYWGQGTTVTVSS VL: DIQLTQSPSFLSASVGDRVTITCRASSSVSYIYWFQQKPGKAPKLLIYATSTLQSGVPSRFSGSGSGTEYTLTISSLQPEDFATYYCHQRNSFPYTFGQGTKLEIKR 4.7 relative to parental Fab

Proceed to TPP-5696, Hu6C12-24 Fab variant VH: (D66G, L70M) (Fab, V domains shown, Built on the parental Fab TPP-4935) VH: EVQLVQSGAEVKKPGASVKVSCKASGYTFTTYTIHWVRQAPGQGLEWIGYINPSSDYTRYNPKFKGRVTMTTDKSTSTAYMELRSLRSDDTAVYYCQTGTRDYWGQGTTVTVSS VL: DIQLTQSPSFLSASVGDRVTITCSAASSVSYIYWFQQKPGKAPKLLIYSTSTLPSGVPSRFSGSGSGTEYTLTISSLQPEDFATYYCHQRNSFPFTFGQGTKLEIKR 1 relative to parental Fab

Next binder: TPP-5838, Hu6C12-24 Fab variant VL: (S24R, A26S, S49A, P54Q, F95Y); VH: (I48M, D66G, L70M) (Fab, V domains shown, Built on the parental Fab TPP-4935) VH: EVQLVQSGAEVKKPGASVKVSCKASGYTFTTYTIHWVRQAPGQGLEWMGYINPSSDYTRYNPKFKGRVTMTTDKSTSTAYMELRSLRSDDTAVYYCQTGTRDYWGQGTTVTVSS VL: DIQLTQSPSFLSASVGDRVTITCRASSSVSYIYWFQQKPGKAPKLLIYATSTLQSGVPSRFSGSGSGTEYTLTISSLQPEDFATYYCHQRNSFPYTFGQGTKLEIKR 9.3 relative to parental Fab

Now this one: TPP-5703, Hu6C12-24 Fab variant VL: (N91S) (Fab, V domains shown, Built on the parental Fab TPP-4935) VH: EVQLVQSGAEVKKPGASVKVSCKASGYTFTTYTIHWVRQAPGQGLEWIGYINPSSDYTRYNPKFKDRVTLTTDKSTSTAYMELRSLRSDDTAVYYCQTGTRDYWGQGTTVTVSS VL: DIQLTQSPSFLSASVGDRVTITCSAASSVSYIYWFQQKPGKAPKLLIYSTSTLPSGVPSRFSGSGSGTEYTLTISSLQPEDFATYYCHQRSSFPFTFGQGTKLEIKR 0.7 relative to parental Fab

For TPP-5700, Hu6C12-24 Fab variant VL: (S24R, A26S, F95Y) (Fab, V domains shown, Built on the parental Fab TPP-4935) VH: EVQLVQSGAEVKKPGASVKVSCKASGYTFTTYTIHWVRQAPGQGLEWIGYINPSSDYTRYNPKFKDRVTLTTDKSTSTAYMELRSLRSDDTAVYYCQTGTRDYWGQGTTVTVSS VL: DIQLTQSPSFLSASVGDRVTITCRASSSVSYIYWFQQKPGKAPKLLIYSTSTLPSGVPSRFSGSGSGTEYTLTISSLQPEDFATYYCHQRNSFPYTFGQGTKLEIKR then? 2.5 relative to parental Fab
